- EXPERIMENT_SUMMARY: Caspase-3/7 induction in HepG2 cells by small molecules, qHTS assay (AID 1346978); note: % is set by controls: 0 for no effect and ±100 for the full control effect; nearly all actives have a fitted effect of over 15% in size
- MEASUREMENT_CONDITIONS: HepG2 caspase-3/7 activation, Caspase-Glo luminescence, 17 h; series mostly up to 92.4 µM
Records with an inconclusive call do not appear. The source made the active and inactive calls. Calls come from the whole dose curve; as a rule, active = well fitted activation curve with a large enough effect in the repeat runs; inconclusive = weak or mixed curves; inactive = flat fitted curve, though single readings scatter.
REPORTED_ENDPOINT: caspase activation

Guide cases for caspase activation, answers given:
# MOLECULE, VALUE_REPORTED
records = [
    ("CC1(C)[C@@H]2CC[C@@]1(C)[C@H](O)C2", "inactive"),
    ("CCCCCCCCCCOc1cc2c(=O)c(C(=O)OCC)c[nH]c2cc1OCC", "0.159% [at 8.39 µM] (inactive)"),
    ("N[C@@H](CCC(=O)O)C(=O)O", "inactive"),
    ("CCCCCCCCCCCCSC", "inactive"),
    ("Cc1ccc(C(=O)c2ccccc2)cc1", "inactive"),
]

Entry CCCCCCCCCCCCCCC(=O)O , caspase activation reported as inactive

// COCCOC[C@H](CC1(C(=O)NC2CCC(C(=O)O)CC2)CCCC1)C(=O)Oc1ccc2c(c1)CCC2 (stereo partly drawn) : caspase activation value = inactive

Please fill in: caspase activation reported for Cc1ccc(-c2ncc(Cl)cc2-c2ccc(S(C)(=O)=O)cc2)cn1 = inactive

caspase activation reported for this molecule Cc1onc(-c2c(Cl)cccc2Cl)c1C(=O)Cl : inactive

Value of caspase activation reported for the molecule CCOc1c(N2CCOCC2)cnn(C)c1=O is inactive

CC(C)CCCO yielded caspase activation of inactive

caspase activation for CC(=O)C1CCCCC1=O (stereo not drawn) is inactive

// caspase activation lookup, molecule = O=C(c1ccccc1)C1(O)CCCCC1 , result: inactive
